Attribution: ChEMBL document CHEMBL3988442

system: Trypanosoma brucei; assay: Trypanosoma brucei 72 hour study; type: functional, organism-based; design: scale not given: in the data most compounds retested in dose-response had high values; conditions: 30 µM; 30.03 µM
The whole screen tested about 66,000 compounds, of which about 960 (1.5%) showed an effect of 50% or more. Many of the other results were omitted from the sample, so strong results are more common in it than they were.
Please use class 1 whenever Percent Effect is not below 20%, and class 0 whenever it is.

[
  {
    "COMPOUND": "COc1ccc(N2CCC(N3CCOC(C(F)(F)F)C3)CC2)cc1 (stereo unspecified)",
    "TARGET": "Trypanosoma brucei",
    "CLASS_ASSIGNMENT": "class 0"
  },
  {
    "COMPOUND": "CC1CCN(S(=O)(=O)c2cccnc2)c2ccccc2S1 (stereo unspecified)",
    "TARGET": "Trypanosoma brucei",
    "CLASS_ASSIGNMENT": "class 1"
  },
  {
    "COMPOUND": "CN(C)S(=O)(=O)N1CCC2(COCc3cnc(NCC4CC4)nc32)C1 (stereo unspecified)",
    "TARGET": "Trypanosoma brucei",
    "CLASS_ASSIGNMENT": "class 0"
  },
  {
    "COMPOUND": "O=C(O)c1cc(/C=C/c2cccc3ccccc23)ncn1",
    "TARGET": "Trypanosoma brucei",
    "CLASS_ASSIGNMENT": "class 0"
  },
  {
    "COMPOUND": "Cc1cc(N(C)CCN(C)C)n2nc(C)cc2n1",
    "TARGET": "Trypanosoma brucei",
    "CLASS_ASSIGNMENT": "class 0"
  },
  {
    "COMPOUND": "CC(C)c1nnc(CN(C)C(c2ccc(F)cc2)c2cccnc2)o1 (stereo unspecified)",
    "TARGET": "Trypanosoma brucei",
    "CLASS_ASSIGNMENT": "class 0"
  }
]

----------
tested on: Trypanosoma brucei; test: Trypanosoma brucei 72 hour study; type: functional, organism-based; set-up: scale not given: in the data most compounds retested in dose-response had high values; details: 30 µM; 30.03 µM
The campaign covered roughly 66,000 compounds. About 960 (1.5%) showed an effect of 50% or more. Shown is part of a subset that was picked to be rich in strong results.
Listed compounds paired with reported Percent Effect

[
  {
    "COMPOUND": "Cc1ccc(CN2C[C@@H]3COC[C@@H](CC(=O)N4CCOCC4)[C@@H]3C2)s1.O=C(O)C(F)(F)F",
    "TARGET": "Trypanosoma brucei",
    "Percent Effect, %": -11.98
  },
  {
    "COMPOUND": "N#Cc1cccc(CN2Cc3nccn3CC(CN3CCCC3)C2)c1.O=C(O)C(F)(F)F.O=C(O)C(F)(F)F (stereo not drawn)",
    "TARGET": "Trypanosoma brucei",
    "Percent Effect, %": -41.66
  },
  {
    "COMPOUND": "O=C(CN1C(=O)CC2(CCCC2)C1=O)NCCc1nccs1",
    "TARGET": "Trypanosoma brucei",
    "Percent Effect, %": -3.261
  },
  {
    "COMPOUND": "O=C(NCCN1CCCCC1)c1nc(-c2ccc3cc[nH]c3c2)no1",
    "TARGET": "Trypanosoma brucei",
    "Percent Effect, %": 29.87
  },
  {
    "COMPOUND": "CC(=O)Nc1nc(C(=O)N2CCCC(c3cc(C)[nH]n3)C2)cs1 (stereo not drawn)",
    "TARGET": "Trypanosoma brucei",
    "Percent Effect, %": 16.48
  },
  {
    "COMPOUND": "Cc1noc(C)c1CNCC1CCN(CC(O)c2ccccc2)CC1 (stereo not drawn)",
    "TARGET": "Trypanosoma brucei",
    "Percent Effect, %": 39.8
  },
  {
    "COMPOUND": "O=C(O)C(F)(F)F.O=C(c1ccco1)N1C[C@H]2CCCN(Cc3nccs3)[C@H]2C1",
    "TARGET": "Trypanosoma brucei",
    "Percent Effect, %": 20.08
  },
  {
    "COMPOUND": "Cc1nccn1CC1CCN(C(=O)Cc2ccccc2)CC1",
    "TARGET": "Trypanosoma brucei",
    "Percent Effect, %": -11.09
  },
  {
    "COMPOUND": "O=C(NCC1CCCN(Cc2cccc3nonc23)C1)c1ccc[nH]1 (stereo not drawn)",
    "TARGET": "Trypanosoma brucei",
    "Percent Effect, %": -46.2
  },
  {
    "COMPOUND": "O=C1NCC2(CCCN(Cc3ccc(Cl)s3)C2)Oc2ccccc21 (stereo not drawn)",
    "TARGET": "Trypanosoma brucei",
    "Percent Effect, %": 12.52
  },
  {
    "COMPOUND": "CCOCC1CN(CCN(C)C)Cc2cnn(CC3CCCC3)c21.O=C(O)C(F)(F)F.O=C(O)C(F)(F)F (stereo not drawn)",
    "TARGET": "Trypanosoma brucei",
    "Percent Effect, %": -10.76
  },
  {
    "COMPOUND": "CCn1ccnc1CNCC1CCN(CC(O)c2ccccc2)CC1 (stereo not drawn)",
    "TARGET": "Trypanosoma brucei",
    "Percent Effect, %": 95.36
  },
  {
    "COMPOUND": "Cc1cnc(NC(=O)c2csc(NC3CCCC3)n2)s1",
    "TARGET": "Trypanosoma brucei",
    "Percent Effect, %": -9.891
  },
  {
    "COMPOUND": "C=C1C(C)(C)[C@H]2CC[C@]1(C(=O)N1CCC(Cn3cc(CO)nn3)CC1)C2",
    "TARGET": "Trypanosoma brucei",
    "Percent Effect, %": -32.31
  },
  {
    "COMPOUND": "c1ccc(OCCCN2CCN(c3ccc4nncn4n3)CC2)cc1",
    "TARGET": "Trypanosoma brucei",
    "Percent Effect, %": 53.47
  },
  {
    "COMPOUND": "CC(C)c1nnc2ccc(N3CCCC(C(=O)Nc4nccs4)C3)nn12 (stereo not drawn)",
    "TARGET": "Trypanosoma brucei",
    "Percent Effect, %": -31.38
  },
  {
    "COMPOUND": "Cc1[nH]/c(=N\\C(=O)c2csc(NC3CC3)n2)sc1C",
    "TARGET": "Trypanosoma brucei",
    "Percent Effect, %": 66.57
  },
  {
    "COMPOUND": "CS(=O)(=O)NCc1ncn2c1CN(Cc1cccs1)CCC2.O=C(O)C(F)(F)F.O=C(O)C(F)(F)F",
    "TARGET": "Trypanosoma brucei",
    "Percent Effect, %": 32.32
  },
  {
    "COMPOUND": "FC(F)(F)COCCN1CCN(c2ccc3nncn3n2)CC1",
    "TARGET": "Trypanosoma brucei",
    "Percent Effect, %": 29.6
  },
  {
    "COMPOUND": "CN(CCOc1ccc(Cl)cc1)Cc1ccc(S(=O)(=O)N(C)C)o1",
    "TARGET": "Trypanosoma brucei",
    "Percent Effect, %": -22.42
  },
  {
    "COMPOUND": "O=C(Cn1ccc2c(Cl)cccc21)N[C@@H](C(=O)O)c1ccccc1",
    "TARGET": "Trypanosoma brucei",
    "Percent Effect, %": 60.67
  },
  {
    "COMPOUND": "CC(C)C[C@H](NC(=O)Cn1ccc2c(Cl)cccc21)C(=O)O",
    "TARGET": "Trypanosoma brucei",
    "Percent Effect, %": -31.2
  },
  {
    "COMPOUND": "CCn1ccnc1CN1CCN(CC(O)c2ccccc2)CC1 (stereo not drawn)",
    "TARGET": "Trypanosoma brucei",
    "Percent Effect, %": -18.29
  },
  {
    "COMPOUND": "Cc1[nH]/c(=N\\C(=O)c2csc(NC3CCCC3)n2)sc1C",
    "TARGET": "Trypanosoma brucei",
    "Percent Effect, %": 95.68
  },
  {
    "COMPOUND": "COCc1ccc(C(=O)N2CCC(Oc3ccccc3)(C(=O)O)CC2)o1",
    "TARGET": "Trypanosoma brucei",
    "Percent Effect, %": -16.4
  },
  {
    "COMPOUND": "CC(C)NC(=O)[C@H]1C[C@@H]2CN(C(=O)NCc3ccccc3)C[C@H]1O2",
    "TARGET": "Trypanosoma brucei",
    "Percent Effect, %": 43.99
  },
  {
    "COMPOUND": "NC1(C(=O)NCC2CCCN(Cc3cccc4nonc34)C2)CCC1 (stereo not drawn)",
    "TARGET": "Trypanosoma brucei",
    "Percent Effect, %": 54.97
  },
  {
    "COMPOUND": "CN(Cc1ccncc1)C1COC2(CCN(Cc3ccsc3)CC2)C1.O=C(O)C(F)(F)F.O=C(O)C(F)(F)F.O=C(O)C(F)(F)F (stereo not drawn)",
    "TARGET": "Trypanosoma brucei",
    "Percent Effect, %": 11.15
  },
  {
    "COMPOUND": "COCCNC(=O)c1nc(-c2ccc3cc[nH]c3c2)no1",
    "TARGET": "Trypanosoma brucei",
    "Percent Effect, %": -23.6
  },
  {
    "COMPOUND": "CN(C)C(=O)NCc1cc(=O)n2c(n1)CN(Cc1ccoc1)CCC2.O=C(O)C(F)(F)F",
    "TARGET": "Trypanosoma brucei",
    "Percent Effect, %": -46.36
  },
  {
    "COMPOUND": "CCC(NC(=O)C1CCN(S(C)(=O)=O)CC1)c1ccc(C)c(C)c1 (stereo not drawn)",
    "TARGET": "Trypanosoma brucei",
    "Percent Effect, %": -5.711
  },
  {
    "COMPOUND": "Cc1cc(C2CCCN2Cc2cc(-c3ccco3)on2)on1 (stereo not drawn)",
    "TARGET": "Trypanosoma brucei",
    "Percent Effect, %": -36.29
  },
  {
    "COMPOUND": "Cc1cc(-c2cnc(NCc3cccnc3)nc2C(C)(C)C)on1",
    "TARGET": "Trypanosoma brucei",
    "Percent Effect, %": 25.28
  }
]
